Each entry below lists one item and its recorded Cmax value.
measurement_description: Cmax in Han Wistar rat at 20 mg/kg, po by LC-MS/MS analysis
Assay type: ADME, organism-based
Parameters: dose 20 mg/kg, route oral
condition_context: in vivo
Field: numeric (ng/mL). Do not append units.

compound	property_measured	output_unit	numeric_value
CC[C@H]1OC(=O)[C@H](C)C(=O)[C@H](C)[C@@H](O[C@@H]2O[C@H](C)C[C@H](N(C)C)[C@H]2O)[C@](C)(OC)C[C@@H](C)C(=O)[C@H](C)[C@H]2N(CCCCn3cnc(-c4cccnc4)c3)C(=O)O[C@]12C [TELITHROMYCIN]	Cmax	ng/mL	340

For the next question, use this compound.
For this compound ( "CC[C@H]1OC(=O)[C@H](C)[C@@H](OC(=O)CCNCCNc2cc3c(=O)c(C(=O)O)cn(C4CC4)c3cc2Cl)[C@H](C)[C@@H](O[C@@H]2O[C@H](C)C[C@H](N(C)C)[C@H]2O)[C@](C)(OC/C=C/c2cnc3ccccc3c2)C[C@@H](C)NC(=O)[C@H](C)[C@@H](O)[C@]1(C)O" ), measured Cmax is 630
